Hello, the source for this data is patent US20240109883A1, in case you need it.

Tested on: cMYC
Assay: cMYC Degradation Assay (MDA-MB-231 cells, western blot)
Format: cell-based
Conditions: 5 μM, 72 hours
quantity.measured: MDA-MB-231 cMYC: Fold Increase in High MW Band at 5 μM (fold)

- substance.smiles: "NC(=O)Nc1ccc2c(c1)CN(c1ncc(Cc3ccc(-c4ncccn4)cc3)s1)CC2"
  observed.measurement: 0.84
- substance.smiles: "CN(C(N)=O)c1ccc2c(c1)CN(c1ncc(Cc3ccc(-c4ncccn4)cc3)s1)CC2"
  observed.measurement: 1.53
- substance.smiles: "CNC(=O)N(C)c1ccc2c(c1)CN(c1ncc(Cc3ccc(-n4cccn4)cc3)s1)CC2"
  observed.measurement: 0.22
- substance.smiles: "NC(=O)Nc1ccc2c(c1)CN(c1ncc(Cc3ccc(-c4ccco4)cc3)s1)CC2"
  observed.measurement: 0.9
- substance.smiles: "NC(=O)Nc1ccc2c(c1)CN(c1ncc(Cc3ccc(-n4cccn4)cc3)s1)CC2"
  observed.measurement: 1.18
